Assay: Ratio of drug level in brain against plasma in mouse
Format: ADME, organism-based
Settings: brain and plasma, read-out: BBR
value_kind: Kp
Would you mind answering with just the numeric figure?

Query: Can you look up the measured Kp of `COc1cc(-n2cnc3cc(-c4ccc(Cl)cc4)sc3c2=O)ccc1OCCN1CCCC1.O=C(O)/C=C\C(=O)O` for me?
Result: 6

###

Test: Bioavailability in mouse
Assay type: ADME, organism-based
Details: in vivo
value_kind: bioavailability

Query: Can you look up the measured bioavailability of `COc1cc(-n2cnc3cc(-c4ccc(Cl)cc4)sc3c2=O)ccc1OCCN1CCCC1.O=C(O)/C=C\C(=O)O` for me?
Result: 31%
